- system-name: Stromelysin-1 (Homo sapiens, UniProt P08254)
- Sequence (P08254 whole entry): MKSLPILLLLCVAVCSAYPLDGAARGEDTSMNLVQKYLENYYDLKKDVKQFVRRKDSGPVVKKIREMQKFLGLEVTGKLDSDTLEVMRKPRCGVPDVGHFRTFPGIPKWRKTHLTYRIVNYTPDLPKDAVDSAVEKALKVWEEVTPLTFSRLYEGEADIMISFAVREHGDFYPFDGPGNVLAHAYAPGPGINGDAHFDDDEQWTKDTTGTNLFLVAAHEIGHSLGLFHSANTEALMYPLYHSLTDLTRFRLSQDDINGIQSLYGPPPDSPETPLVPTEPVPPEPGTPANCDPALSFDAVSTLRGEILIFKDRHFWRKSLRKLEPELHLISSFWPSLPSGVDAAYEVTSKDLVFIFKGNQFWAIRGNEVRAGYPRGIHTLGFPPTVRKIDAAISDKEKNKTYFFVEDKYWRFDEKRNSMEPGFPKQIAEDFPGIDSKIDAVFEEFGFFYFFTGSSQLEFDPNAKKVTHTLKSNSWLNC
- test-protocol: Inhibition of recombinant human MMP3 preincubated for 30 mins followed by McaPro-Leu-Gly-Leu-Dpa-Ala-Arg-NH2 substrate addition measured by fluorescence assay
- run-parameters: read-out: IC50
metric-name: pIC50
One number for each entry, as −log10 of the molar value.

Reference set, count: 5
- molecule: "O=C1OCc2ccc(-c3ccc(O)cc3)c(C(=O)c3ccc(O)cc3)c21"
  value-observed: 4.39
- molecule: "O=C(c1ccc(O)cc1)c1cc(-c2ccc(O)cc2)c(-c2ccc(O)cc2)c(-c2ccc(O)cc2)c1"
  value-observed: 4.18
- molecule: "O=C(O)c1c(-c2ccc(O)cc2)ccc(CO)c1C#Cc1ccc(O)cc1"
  value-observed: 4.08
- molecule: "COc1ccc(C2CC(=O)c3c(O)cc(O)cc3O2)cc1-c1c(O)cc(O)c2c(=O)cc(-c3ccc(O)cc3)oc12 (centres undefined)"
  value-observed: 4.13
- molecule: "O=C1OC(c2ccc(O)cc2)(c2ccc(O)cc2)c2c(-c3ccc(O)cc3)ccc(CO)c21"
  value-observed: 4.06

Proceed to the following item.
GET /values?readout=pIC50&system=Stromelysin-1 (Homo sapiens, UniProt P08254)&item= COc1ccc(-c2cc(=O)c3c(O)cc(O)cc3o2)cc1-c1c(O)cc2oc(-c3ccc(O)cc3)cc(=O)c2c1O
4.43

====

I'd be grateful if you could share measured IC50 for these entries.
- Tested on: MGC-803
- test-protocol: Cytotoxicity against human MGC803 cells assessed as reduction in cell viability after 48 hrs by MTT assay
- Format: functional, cell-based
- run-parameters: MGC-803, 48 h
Give bare numbers, in µM.

Study these solved cases before continuing.
- compound: "COc1ccc(-c2cc(=O)c3c(O)cc(O)cc3o2)cc1-c1c(O)cc2oc(-c3ccc(O)cc3)cc(=O)c2c1O"
  IC50 [µM]: 21.8
- compound: "O=C1OCc2ccc(-c3ccc(O)cc3)c(C(=O)c3ccc(O)cc3)c21"
  IC50 [µM]: 26.4

Please examine the following record next.
Field: IC50 (MGC-803). Entry: COc1ccc(C2CC(=O)c3c(O)cc(O)cc3O2)cc1-c1c(O)cc2c(c1O)C(=O)CC(c1ccc(O)cc1)O2 (stereo not given)
26

====

- system-name: Stromelysin-1 (Homo sapiens, UniProt P08254)
- test-protocol: Inhibition of recombinant human MMP3 preincubated for 30 mins followed by McaPro-Leu-Gly-Leu-Dpa-Ala-Arg-NH2 substrate addition measured by fluorescence assay
- run-parameters: read-out: IC50
pIC50: −log10 of the molar value.
Please provide measured pIC50 for the entries that follow.

Previously resolved entries follow.
- chem-smiles: "COc1ccc(-c2cc(=O)c3c(O)cc(O)cc3o2)cc1-c1c(O)cc(O)c2c(=O)cc(-c3ccc(O)cc3)oc12"
  pIC50: "< 4.00"
- chem-smiles: "O=c1cc(-c2ccc(O)c(-c3c(O)cc(O)c4c(=O)cc(-c5ccc(O)cc5)oc34)c2)oc2cc(O)cc(O)c12"
  pIC50: "< 4.00"

Consider the additional molecule presented here.
I have this molecule here, O=C(/C=C(\c1ccccc1)c1c(-c2ccc(O)cc2)cccc1-c1ccc(O)cc1)c1ccc(O)cc1 , and I need its recorded pIC50.
< 4.00

These data points were gathered from ChEMBL document CHEMBL4190401.
